assay_overview: Cmax in ICR mouse plasma at 20 mg/kg, po measured up to 24 hrs
Assay type: ADME, organism-based
Set-up: route oral, dose 20 mg/kg, time <=24
property_label: Cmax (ng/mL)
Reply with just the number (in ng/mL).

## Input Request the reported Cmax associated with CC#CCn1c(N2CCC[C@@H](N)C2)nc2c1c(=O)n(CCCN1CCN(c3nc(-c4ccccc4)no3)CC1)c(=O)n2C
## Output 213

---

Please go through the items and note down their Cmax.
assay_overview: Cmax in Sprague-Dawley rat plasma at 30 mg/kg, po measured up to 24 hrs
Assay type: ADME, organism-based
Parameters: route oral, dose 30 mg/kg, time <=24
Lab book: enter the figure in ng/mL, no units written.

## Input What value of measured Cmax is listed for CC#CCn1c(N2CCC[C@@H](N)C2)nc2c1c(=O)n(CCCN1CCN(c3nc(-c4ccccc4)no3)CC1)c(=O)n2C.Cl ?
## Output 226

## Input Which Cmax value is on record for CC#CCn1c(N2CCC[C@@H](N)C2)nc2c1c(=O)n(CCCN1CCN(c3nc(-c4ccccc4)no3)CC1)c(=O)n2C ?
## Output 192

Entry source: ChEMBL document CHEMBL4680154
